I'd appreciate it if you could supply EC50 values for the items below.
# System Under Test: hSTING (Homo sapiens)
# Sequence (Q86WV6 whole entry R71H/G230A/H232R/R293Q, form open): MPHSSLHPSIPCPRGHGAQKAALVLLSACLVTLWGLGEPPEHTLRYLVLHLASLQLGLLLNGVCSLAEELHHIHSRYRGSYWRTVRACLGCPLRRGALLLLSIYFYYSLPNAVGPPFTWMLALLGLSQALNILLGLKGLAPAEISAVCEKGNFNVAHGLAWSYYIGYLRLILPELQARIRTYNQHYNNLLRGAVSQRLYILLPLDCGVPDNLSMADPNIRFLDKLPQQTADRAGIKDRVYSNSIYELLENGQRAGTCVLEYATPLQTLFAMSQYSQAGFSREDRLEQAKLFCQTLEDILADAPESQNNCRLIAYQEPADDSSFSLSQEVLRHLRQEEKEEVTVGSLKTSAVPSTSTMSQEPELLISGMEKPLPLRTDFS
# Assay Info: STING reporter assay (luciferase) in THP1-Dual KO-IFNAR2 cells activated with 2'3' cGAMP
# Conditions: 15 μM 2'3' cGAMP, 24 h

Value of measured EC50 for the entry `O=C(Nc1ccc(C(F)(F)F)cc1)Nc1c[nH]c2cc(F)c(-c3cnn(C(F)F)c3)cc12` : 0.04 to 0.2 µM

EC50 in this record for `COc1cccc(-c2ccc3[nH]cc(NC(=O)Nc4ccc(C(F)(F)F)cc4)c3c2)c1` : 0.2 to 1 µM

Lab note: `O=C(Nc1ccc(C(F)(F)F)cc1)Nc1c[nH]c2ccc(-c3c(F)cccc3F)cc12` gave EC50 of 1 to 5 µM

Notebook: `O=C(Nc1ccc(C(F)(F)F)cc1)Nc1c[nH]c2ccc(-c3ccc(Cl)c(Cl)c3)cc12` , EC50 read as 1 to 5 µM

Per the records, this compound ( `O=C(Nc1ccc(C(F)(F)F)cc1)Nc1c[nH]c2ccc(-c3cc(Cl)nc(Cl)c3)cc12` ) has EC50 equal to 0.2 to 1 µM

Value of measured EC50 for the entry `CC(C)c1ccc(-c2ccc3[nH]cc(NC(=O)Nc4ccc(C(F)(F)F)cc4)c3c2)cc1` : 0.2 to 1 µM

Reported EC50 for `O=C(Nc1ccc(C(F)(F)F)cc1)Nc1c[nH]c2ccc(-c3cnn(CC4CC4)c3)cc12` was 0.04 to 0.2 µM

The compound listed as `Nc1cc(-c2ccc3[nH]cc(NC(=O)Nc4ccc(C(F)(F)F)cc4)c3c2)ccn1` has a reported EC50 of 1 to 5 µM

Kindly note the recorded EC50 for `O=C(Nc1ccc(C(F)(F)F)cc1)Nc1c[nH]c2ccc(-c3cccc(Cl)c3)cc12` , which is 0.2 to 1 µM

Memo: `O=C(Nc1ccc(C(F)(F)F)cc1)Nc1c[nH]c2ccc(-c3cccc(OC(F)(F)F)c3)cc12` , reported EC50: 0.2 to 1 µM

Lookup result for `O=C(Nc1ccc(C(F)(F)F)cc1)Nc1c[nH]c2ccc(-c3ccc(F)cc3F)cc12` ; measured EC50: 1 to 5 µM

Entry `O=C(Nc1ccc(C(F)(F)F)cc1)Nc1c[nH]c2ccc(-c3ccc(CO)c(F)c3)cc12` — recorded EC50 = 0.2 to 1 µM

Memo: `O=C(Nc1ccc(C(F)(F)F)cc1)Nc1c[nH]c2ccc(-c3cccc4ncccc34)cc12` , reported EC50: 0.2 to 1 µM

EC50 measured on `O=C(Nc1ccc(C(F)(F)F)cc1)Nc1c[nH]c2ccc(-c3ccc(CO)cc3)cc12` = 1 to 5 µM

Sample `CC(=O)c1ccc(-c2ccc3[nH]cc(NC(=O)Nc4ccc(C(F)(F)F)cc4)c3c2)s1` ; EC50 observed: 0.2 to 1 µM

The reported EC50 of the compound `O=C(Nc1ccc(C(F)(F)F)cc1)Nc1c[nH]c2ccc(-c3cc(F)cc(F)c3)cc12` was 0.2 to 1 µM
